Target: PDE-4A1A (Homo sapiens)
Construct: purchased Sigma SRP0262
Sequence (P27815 1-647 isoform P27815-4): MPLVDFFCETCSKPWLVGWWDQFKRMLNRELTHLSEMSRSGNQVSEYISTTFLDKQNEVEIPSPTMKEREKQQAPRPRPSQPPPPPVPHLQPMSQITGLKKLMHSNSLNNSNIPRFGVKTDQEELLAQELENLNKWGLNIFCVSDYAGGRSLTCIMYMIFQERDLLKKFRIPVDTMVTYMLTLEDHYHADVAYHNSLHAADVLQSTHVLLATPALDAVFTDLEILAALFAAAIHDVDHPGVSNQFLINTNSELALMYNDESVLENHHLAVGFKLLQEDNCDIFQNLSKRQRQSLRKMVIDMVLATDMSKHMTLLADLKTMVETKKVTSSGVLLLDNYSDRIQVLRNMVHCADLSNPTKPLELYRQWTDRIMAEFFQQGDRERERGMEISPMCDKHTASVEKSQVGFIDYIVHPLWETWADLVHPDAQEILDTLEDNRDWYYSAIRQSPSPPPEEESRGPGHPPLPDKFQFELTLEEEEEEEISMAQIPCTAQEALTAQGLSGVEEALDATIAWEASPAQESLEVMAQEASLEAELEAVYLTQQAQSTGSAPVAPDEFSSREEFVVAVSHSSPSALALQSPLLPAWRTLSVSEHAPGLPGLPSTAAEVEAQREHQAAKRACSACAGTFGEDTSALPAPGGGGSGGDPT
Test: PDE-41A assay (Compounds of Formula II), AMP-Glo
Assay type: biochemical
readout.type: inhibition at 30 µM (%)
Answers are plain numbers, in %.

Examples from the recorded data:
compound	measurement.unit	inhibition at 30 µM
COc1ccc([C@@]23CC[C@@H](OC(=O)C(C)N)C[C@@H]2N(C)CC3)cc1OC (some centres unmarked) [Compound 49]	%	87
COc1ccc([C@@]23CC[C@@H](OC(=O)c4ccccc4)C[C@@H]2N(C)CC3)cc1OC [Compound 52]	%	97
COc1ccc([C@@]23C=C[C@@H](OC(=O)CCC(=O)O)C[C@@H]2N(C)CC3)cc1OC [Compound 54]	%	98

Provide inhibition at 30 µM values for the following items, in order.
1. COc1ccc([C@@]23C=C[C@@H](OC(=O)CN)C[C@@H]2N(C)CC3)cc1OC [Compound 56]
2. COc1ccc([C@@]23C=C[C@@H](OC(=O)c4ccccc4)C[C@@H]2N(C)CC3)cc1OC [Compound 60]
3. COc1ccc([C@@]23CC[C@@H](OC(=O)c4ccc[nH]4)C[C@@H]2N(C)CC3)cc1OC [Compound 53]
4. COc1ccc([C@@]23C=C[C@@H](OC(=O)CCCC(=O)O)C[C@@H]2N(C)CC3)cc1OC [Compound 55]
5. COc1ccc([C@@]23C=C[C@@H](OC(=O)C(C)N)C[C@@H]2N(C)CC3)cc1OC (some centres unmarked) [Compound 57]

74
98
94
100
101
